# Tested on: potato 5-lipoxygenase
# assay notes: 5-Lipoxygenase enzyme inhibitory activity
# Assay type: biochemical
# conditions used: 10 μg/ml
outcome measure: % inhibition at 10 μg/ml (%)

# annotated cases, reported % inhibition at 10 μg/ml shown
molecule="CNC(=O)[C@]1(C)C2CC[C@]3(C)C(C(=O)C=C4C5[C@@H](C)[C@H](C)CC[C@]5(C)CC[C@]43C)[C@@]2(C)CC[C@H]1OC(C)=O (some centres unmarked)" measurement=14.57
molecule="CC(=O)O[C@@H]1CC[C@@]2(C)C(CC[C@]3(C)C2C(=O)C=C2C4[C@@H](C)[C@H](C)CC[C@]4(C)CC[C@]23C)[C@@]1(C)C(=O)N1CCN(CCO)CC1 (some centres unmarked)" measurement=32.11
molecule="CC(=O)O[C@@H]1CC[C@@]2(C)C(CC[C@]3(C)C2C(=O)C=C2C4[C@@H](C)[C@H](C)CC[C@]4(C)CC[C@]23C)[C@@]1(C)C(=O)n1ccnc1 (some centres unmarked)" measurement=18.40

P. CC(=O)O[C@@H]1CC[C@]2(C)C3=C(Cl)C=C4C5[C@@H](C)[C@H](C)CC[C@]5(C)CC[C@@]4(C)[C@]3(C)CCC2[C@@]1(C)C(=O)NN (some centres unmarked)
Q. C[C@@H]1CC[C@]2(C)CC[C@]3(C)C(=CC(Cl)=C4[C@@]5(C)CC[C@@H](O)[C@](C)(C(=O)O)C5CC[C@]43C)C2[C@H]1C (some centres unmarked)
Query block: Select the item with the higher value of % inhibition at 10 μg/ml from the options P and Q listed. Give the chosen item's label as your response.
Result block: P
(P: 36.26%, Q: 21.46%)

* * *

Property: inhibition at 10 µg/mL; scope: individual compounds
# System: MDA-MB-231
# assay notes: MTT cell proliferation assay, MDA-MB-231
# Assay type: cell-based, human
# conditions used: Homo sapiens, MDA-MB-231; Table 4; 10 μg/ml; read-out: Percentage Inhibition of cell proliferation MDA-MB-231
# Experimental: MTT [3-(4,5-dimethylthiazol-2-yl)-2,5-diphenyltetrazolium bromide] incorporation based cell proliferation assay was performed as described previously (Reference). The cytotoxic efficacy of some analogs was evaluated in different cell lines by MTT cell proliferation assay kit (Roche Applied Sciences, Germany). […] After complete solubilization of the formazan crystals the absorbance was read at 540 nm in a microplate reader (BioRad, USA). […]
State just the number; it will be interpreted in %.

Query block: # query: inhibition at 10 µg/mL | item COC(=O)[C@]1(C)C2CC[C@]3(C)C(C(=O)C=C4C5[C@@H](C)[C@H](C)CC[C@]5(C)CC[C@]43C)[C@@]2(C)CC[C@H]1S (stereo partly shown) [Analog 15] | system: MDA-MB-231
Result block: 37.5

Query block: Enter reported inhibition at 10 µg/mL observed with MDA-MB-231 for CC(=O)O[C@@H]1CC[C@@]2(C)C(CC[C@]3(C)C2C(=O)C=C2C4[C@@H](C)[C@H](C)CC[C@]4(C)CC[C@]23C)[C@@]1(C)C(=O)N1CCOCC1 (stereo partly shown) [Analog 37]
Result block: 23

Query block: State its inhibition at 10 µg/mL on MDA-MB-231: CNC(=O)[C@]1(C)C2CC[C@]3(C)C(C(=O)C=C4C5[C@@H](C)[C@H](C)CC[C@]5(C)CC[C@]43C)[C@@]2(C)CC[C@H]1OC(C)=O (stereo partly shown) [Analog 43]
Result block: 47.8

Query block: State its inhibition at 10 µg/mL on MDA-MB-231: C[C@@H]1CC[C@]2(C)CC[C@]3(C)C(=CC(=O)C4[C@@]5(C)CC[C@@H](O)[C@](C)(C(=O)N6CCN(CCO)CC6)C5CC[C@]43C)C2[C@H]1C (stereo partly shown) [Analog 38]
Result block: 20

* * *

# Test system: Jurkat
# Format: cell-based, human
# Set-up: unit not given here
# conditions used: MTT assay
outcome measure: minimum inhibitory concentration (MIC) Jurkat
// response body must contain only the number

Consider the worked cases shown below.
compound="C[C@@H]1CC[C@]2(C)CC[C@]3(C)C(=CC(=O)C4[C@@]5(C)CC[C@@H](OC(=O)CN)[C@](C)(C(=O)O)C5CC[C@]43C)C2[C@H]1C (stereo partly shown)" measurement=50
compound="CC(=O)O[C@@H]1CC[C@@]2(C)C(CC[C@]3(C)C2C(=O)C=C2C4[C@@H](C)[C@H](C)CC[C@]4(C)CC[C@]23C)[C@@]1(C)N (stereo partly shown)" measurement=50
compound="CC(=O)OC1CCC2(C)C(CCC3(C)C2C(=O)C=C2C4C(C)C(C)CCC4(C)CCC23C)C1(C)C(=O)N1CCNCC1 (stereo not shown)" measurement=50

Query block: Looking for the measured minimum inhibitory concentration (MIC) Jurkat of COc1cc(C(=O)O[C@@H]2CC[C@@]3(C)C(CC[C@]4(C)C3C(=O)C=C3C5[C@@H](C)[C@H](C)CC[C@]5(C)CC[C@]34C)[C@@]2(C)C(=O)O)cc(O)c1O (stereo partly shown) , can you help?
Result block: 125

Query block: Could you share which minimum inhibitory concentration (MIC) Jurkat value was measured for CC(=O)O[C@@H]1CC[C@@]2(C)C(CC[C@]3(C)C2C(=O)C=C2C4[C@@H](C)[C@H](C)CC[C@]4(C)CC[C@]23C)[C@@]1(C)C(=O)NN (stereo partly shown) ?
Result block: 50

Query block: Dear colleague, I am looking for the recorded minimum inhibitory concentration (MIC) Jurkat of the following compound: CC(=O)OC1CC[C@@]2(C)C(CC[C@]3(C)C2C(=O)C=C2C4[C@@H](C)[C@H](C)CC[C@]4(C)CC[C@]23C)[C@@]1(C)C(N)=O (stereo partly shown)
Result block: 10

Query block: Param item = C[C@H](N)C(=O)O[C@@H]1CC[C@@]2(C)C(CC[C@]3(C)C2C(=O)C=C2C4[C@@H](C)[C@H](C)CC[C@]4(C)CC[C@]23C)[C@@]1(C)C(=O)O (stereo partly shown) ; retrieve measured minimum inhibitory concentration (MIC) Jurkat.
Result block: 50

* * *

# System: potato 5-lipoxygenase
# assay notes: 5-Lipoxygenase enzyme inhibitory activity
# Format: biochemical
# conditions used: 10 μg/ml
outcome measure: % inhibition at 10 μg/ml (%)

A. CC(=O)O[C@@H]1CC[C@@]2(C)C(CC[C@]3(C)C2C(=O)C=C2C4[C@@H](C)[C@H](C)CC[C@]4(C)CC[C@]23C)[C@@]1(C)C(=O)NCCN(CCO)CCO (some centres unmarked) [Analog 49]
B. CC(=O)O[C@@H]1CC[C@@]2(C)C(CC[C@]3(C)C2C(=O)C=C2C4[C@@H](C)[C@H](C)CC[C@]4(C)CC[C@]23C)[C@@]1(C)C(=O)Nc1ccccc1Br (some centres unmarked) [Analog 44]
Query block: When their % inhibition at 10 μg/ml values are compared, which is larger, A or B ? Provide the label of your selected option as the answer.
Result block: A
(A: 31.55%, B: 19.88%)

P. CC(=O)O[C@@H]1CC[C@@]2(C)C(CC[C@]3(C)C2CC=C2C4[C@@H](C)[C@H](C)CC[C@]4(C)CC[C@]23C)[C@@]1(C)C(=O)N1CCNCC1 (some centres unmarked) [Analog 54]
Q. CC(=O)O[C@@H]1CC[C@@]2(C)C(CC[C@]3(C)C2C(=O)C=C2C4[C@@H](C)[C@H](C)CC[C@]4(C)CC[C@]23C)[C@@]1(C)C(=O)NCCCCN (some centres unmarked) [Analog 34]
R. CC(=O)O[C@@H]1CC[C@@]2(C)C(CC[C@]3(C)C2C(=O)C=C2C4[C@@H](C)[C@H](C)CC[C@]4(C)CC[C@]23C)[C@@]1(C)C(=O)NCCCCCCN (some centres unmarked) [Analog 33]
Query block: Rank items: key % inhibition at 10 μg/ml, increasing. # answer = labels listed in requested order
Result block: Q, R, P
(Q: 16.31%, R: 24.66%, P: 35.69%)

* * *

# Tested on: MDA-MB-231
# assay notes: MTT cell proliferation assay, MDA-MB-231
# Assay type: cell-based, human
# conditions used: Table 4
# Procedure: MTT [3-(4,5-dimethylthiazol-2-yl)-2,5-diphenyltetrazolium bromide] incorporation based cell proliferation assay was performed as described previously (Reference). The cytotoxic efficacy of some analogs was evaluated in different cell lines by MTT cell proliferation assay kit (Roche Applied Sciences, Germany). […] After complete solubilization of the formazan crystals the absorbance was read at 540 nm in a microplate reader (BioRad, USA). […]
outcome measure: IC50 values MDA-MB-231

Query block: Fill in the blank: the reported IC50 values MDA-MB-231 of CC(=O)OC1CC[C@@]2(C)C(CC[C@]3(C)C2C(=O)C=C2C4[C@@H](C)[C@H](C)CC[C@]4(C)CC[C@]23C)[C@@]1(C)C(=O)NCCN (stereo partly drawn) is ____.
Result block: 3.45 µg/mL

Where do the numbers come from? From patent US8748598B2.
